- subject.of.test: ovine COX-2 (Ovis aries)
- Construct: purchased Cayman Chemical, Ann Arbor, MI, USA
- Sequence (P79208 17-603): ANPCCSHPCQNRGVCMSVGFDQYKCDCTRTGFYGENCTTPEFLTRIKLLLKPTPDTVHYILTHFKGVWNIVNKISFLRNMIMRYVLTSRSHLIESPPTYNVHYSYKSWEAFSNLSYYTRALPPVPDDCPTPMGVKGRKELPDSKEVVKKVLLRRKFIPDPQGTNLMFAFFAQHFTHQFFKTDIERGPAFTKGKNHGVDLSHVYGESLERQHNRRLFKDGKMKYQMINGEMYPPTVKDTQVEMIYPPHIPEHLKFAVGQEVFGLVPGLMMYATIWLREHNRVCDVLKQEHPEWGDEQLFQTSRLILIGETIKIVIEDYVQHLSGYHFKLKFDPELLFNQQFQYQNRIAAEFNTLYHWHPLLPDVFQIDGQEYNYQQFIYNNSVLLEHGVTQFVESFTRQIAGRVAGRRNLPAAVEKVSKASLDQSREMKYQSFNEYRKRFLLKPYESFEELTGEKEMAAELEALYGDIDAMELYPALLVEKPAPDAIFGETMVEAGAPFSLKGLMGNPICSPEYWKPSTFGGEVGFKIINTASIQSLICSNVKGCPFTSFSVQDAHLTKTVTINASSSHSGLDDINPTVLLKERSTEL
- assay.remarks: In vitro COX-2 enzyme inhibition, chemiluminescent enzyme assay kit (Cayman)
- Format: biochemical
- condition.details: In vitro COX-2 selectivity index (COX-1 IC50/COX-2 IC50)
For each entry below, report its Selectivity index (SI) value.
Answer with a bare number; do not write a unit.

Q. Under ovine COX-2 (Ovis aries): report Selectivity index (SI) of CCCN1C(=O)NC(c2ccccc2)(c2ccc(S(C)(=O)=O)cc2)C1=O (centres unmarked) [Compound 7] .
A. 70.2

Q. Report its Selectivity index (SI) with ovine COX-2 (Ovis aries) as the test system: CN1C(=O)NC(c2ccccc2)(c2ccc(S(C)(=O)=O)cc2)C1=O (centres unmarked) [Compound 5]
A. 280.1

Q. Identify measured Selectivity index (SI) obtained with ovine COX-2 (Ovis aries) for C=CCN1C(=O)NC(c2ccccc2)(c2ccc(S(C)(=O)=O)cc2)C1=O (centres unmarked) [Compound 8] .
A. 151.1

Q. # return Selectivity index (SI) of CCN1C(=O)NC(c2ccccc2)(c2ccc(S(C)(=O)=O)cc2)C1=O (centres unmarked) [Compound 6] (system: ovine COX-2 (Ovis aries))
A. 206.2

// data source = paper PMC3163375
